Target: SARS-CoV-2 NSP3 macrodomain (Mac1), P43 crystal form (Severe acute respiratory syndrome coronavirus 2)
Type: binding
Settings: ligand conformations modeled in Mac1 crystal structure
test readout: Total number of conformations
Give bare numbers.

Use the examples below as a reference point.
// query Supply reported Total number of conformations belonging to this compound: `O=C(O)C(F)(F)F.OC[C@H](Cc1ccc(O)cc1)Nc1ncnc2[nH]ccc12`
// result 1

// query For the compound O=S1(=O)CCCC(O)(CNc2ncnc3[nH]ccc23)C1 (stereo not shown) , give its reported Total number of conformations.
// result 1

// query Annotate the compound OC1CCC(O)(CNc2ncnc3[nH]ccc23)CC1 (stereo not shown) with its measured Total number of conformations.
// result 2

Batch request: Total number of conformations per item, same order as input.
1. OCC(CN1CCCCC1)Nc1ncnc2[nH]ccc12 (stereo not shown)
2. OCC1CC2(CCOCC2)CN1c1ncnc2[nH]ccc12 (stereo not shown)
3. CC1(C)CCC(CO)N(c2ncnc3[nH]ccc23)C1 (stereo not shown)
4. OC1(CNc2ncnc3[nH]ccc23)COC2CC1C2 (stereo not shown)
5. O=C(O)C1CCCN1S(=O)(=O)c1cccc2nsnc12 (stereo not shown)
6. CC(c1ccccc1)C(CO)Nc1ncnc2[nH]ccc12 (stereo not shown)
7. CC1(C)CCN(c2ncnc3[nH]ccc23)C(CO)C1 (stereo not shown)
8. CCC(CO)Nc1ncnc2[nH]ccc12 (stereo not shown)

// result
1
1
3
1
1
1
2
1
